Each item that follows carries a reported GI50.
- System: UO-31
- assayProtocol: NCI tumour cell line growth inhibition, 48 h
Activity calls are given as the source filed them. Cut-off read from the data, not from the text of the source: active = GI50 up to about 1.1 µM and inactive = higher.
recordedEndpoint: GI50

- O=C(Nc1ccc(Cl)cc1)C(=O)C(C(=O)c1ccccc1-c1ccccc1)C1OC(=O)c2ccccc21 (stereo not given): 19.4 µM (inactive)
- CCOC(=O)c1ccc(Nc2nc3cc(C(F)(F)F)ccc3nc2-c2ccccc2)cc1: > 100 µM (inactive)
- CCn1c(-c2cc3ccccc3cc2OC(C)=O)n[nH]c1=S: 67.8 µM (inactive)
- CC1=NN(c2ccccc2Cl)C2(C1)SCC(=O)N2c1nc2ccccc2s1 (stereo not given): > 100 µM (inactive)
- O=C(CSc1nnc(-c2ccc(/N=C\c3ccc(Cl)cc3)cc2)o1)Nc1ccc(Cl)cc1Cl: 33 µM (inactive)

The origin of these recorded values is ChEMBL document CHEMBL1201862.
